Measured growth of individual entries
Tested on: SW-620 colon
Test name: NCI-60 one-dose screen, 48 h (100 = growth as untreated, 0 = no growth, -100 = all killed)
Setup conditions: 10 µM
About 83,000 compounds went through this panel and 20% of them were active in at least one assay; those are over-represented in the sample as a whole.
Could you give me the number in %? Just the number is fine.

Compound	System name	growth [%]
CN(C)c1nc(N)c2nccnc2n1	SW-620 colon	99.2
O=C(CN(C1CCCCC1)C1CCCCC1)Nc1ccc(S(=O)(=O)c2ccc(NC(=O)CN(C3CCCCC3)C3CCCCC3)cc2)cc1	SW-620 colon	-48.4
O=C(Nc1ccc(NS(=O)(=O)c2ccc(F)cc2)cc1)C12CC3CC(CC(C3)C1)C2	SW-620 colon	99.4
C(=N\Nc1ncnc2sc3c(c12)CCNC3)/c1cccc2ccccc12	SW-620 colon	2.91
O=[N+]([O-])c1cccc(/C=N/NC(=S)NC23CC4CC(CC(C4)C2)C3)c1	SW-620 colon	88.5
COC(=O)c1cc2oc(/C=C3/SC(=S)N(N)C3=O)cc2n1Cc1ccccc1	SW-620 colon	-43.3

Next compound, growth to be filled in.
INPUT: What measured growth goes with C=C(NC(=O)C(=C)NC(=O)c1csc(C2=NC3c4csc(n4)C4NC(=O)c5csc(n5)C(C(C)(O)C(C)O)NC(=O)C5CSC(=N5)C(=CC)NC(=O)C(C(C)O)NC(=O)c5csc(n5)C3(CC2)NC(=O)C(C)NC(=O)C(=C)NC(=O)C(C)NC(=O)C(C(C)CC)NC2C=Cc3c(C(C)O)cc(nc3C2O)C(=O)OC4C)n1)C(N)=O (configuration not stated) ?
OUTPUT: 1.83

====

Test system: HCT-15 colon
Test name: NCI-60 one-dose screen, 48 h
Setup conditions: 10 µM
This is part of a sample that, as a whole, favours compounds with a hit. Of some 83,000 tested, about 20% had one in any assay. Activity calls are given as the source filed them. The calls were made as follows: active = growth percent below 10; inactive = the rest.
A correct response names exactly one class from active, inactive

Check out these entries, answers already filled in.
Compound	System name	Category
Cc1cc(SCc2ccccc2)nc(N)n1	HCT-15 colon	inactive
O=S(=O)(Oc1ccc(-c2ccc3sccc3c2)cc1)c1ccc(F)cc1	HCT-15 colon	inactive
CCOC(=O)/C(=C(\C)N)C1CC(=O)NC1=O (stereo unspecified)	HCT-15 colon	inactive
CN(C)CCCOc1ccc(OCCCN(C)C)c2c1C(=O)c1ccccc1C2=O	HCT-15 colon	inactive
CC(=O)COc1ccc(Cl)cc1Cl	HCT-15 colon	inactive

INPUT: What classification did CCCCCCCCCCCC[n+]1c(C)cc(N)c2ccccc21 end up with in this test?
OUTPUT: inactive

INPUT: What classification did COc1ccc(Cl)cc1Nc1nc(C(F)(F)F)ccc1C(=O)N/N=C/c1cc(OC)c(OC)c(OC)c1 end up with in this test?
OUTPUT: inactive

====

Tested on: MALME-3M melanoma
Test name: NCI-60 one-dose screen, 48 h (100 = growth as untreated, 0 = no growth, -100 = all killed)
Setup conditions: 10 µM
This is part of a sample that, as a whole, favours compounds with a hit. Of some 83,000 tested, about 20% had one in any assay. Calls of active or inactive are those of the source. Rule for the calls: active = growth percent below 10; inactive = the rest.
Attribute measured: growth

Compound	growth
CN1CCN(CC(=O)Nc2cccc(-n3cc(-c4ccncc4)c(-c4ccc(Cl)c(O)c4)n3)c2)CC1	46.3% (inactive)

INPUT: What measured growth goes with COc1cc2cc(Oc3ccc(NC(=O)c4cccc(C(F)(F)F)c4)cc3)c(C)nc2cc1OC ?
OUTPUT: 47.5% (inactive)

INPUT: What measured growth goes with CCCN1CN2C(=O)N3CN(CCC)CN4C(=S)N(C1)C2C34 (stereo not given) ?
OUTPUT: 112% (inactive)

INPUT: What measured growth goes with CCOC(=O)CSc1nc(-c2cc(OC)ccc2OC)cc(-c2ccc(OC)cc2)c1C#N ?
OUTPUT: 98.8% (inactive)

INPUT: What measured growth goes with O=C(Cn1cc(CO)nn1)Nc1nc2ccccc2s1 ?
OUTPUT: 93.8% (inactive)
